Tested on: guinea pig
experimental_details: In vivo bronchodilator and hypotensive activity (intratracheal pressure and arterial blood pressure in anesthetized guinea pig)
conditions: intravenous, hypotensive activity
parameter_measured: ABP ED20 (dose which reduces arterial blood pressure by 20%) (mg/kg)
Write the answer as a number in mg/kg, unit excluded.

Here are 2 molecules together with their reported answers.
molecule	test_result
CCCNc1nc(N)c2ncn(C3CCCCC3)c2n1 [Example 3, 9-Cyclohexyl-2-n-propylamino-9H-adenine]	2.8
Cn1c(=O)c2[nH]cnc2n(C)c1=O [Aminophylline, reference compound]	1.4

Inquiry: Tell me reported ABP ED20 (dose which reduces arterial blood pressure by 20%) for Nc1nc(NC2CCCCC2)nc2c1ncn2C1C=CCCC1 (centres unmarked) [Example 2] , tested with guinea pig.
Reply text: 2.4
